target: SARS-CoV-2 3CL-protease (Severe acute respiratory syndrome coronavirus 2 (2019-nCoV) (SARS-CoV-2), UniProt P0DTD1); experiment: SARS-CoV-2 3C-like (3CL) protease fluorescence assay (FRET); assay type: biochemical; conditions: recombinant SARS-CoV-2 3CL-protease 10 nM, 30 min preincubation at RT, TAMRA-[…]-Dabcyl-OH substrate, run in duplicate
Some compounds, each annotated with its measured IC50.

Query block: Return reported IC50; argument: `CC(C)C[C@@H](C(=O)N1C[C@]2(C[C@H]1C#N)C(=O)Nc1ccccc12)n1cccc(-c2ccncc2)c1=O`
Result block: 100 to 1000 nM

Query block: What measured IC50 goes with `CC(C)C[C@@H](C(=O)N1C[C@]2(C[C@H]1C#N)C(=O)Nc1ccccc12)N1CCc2ccc(F)cc2C1=O` ?
Result block: < 100 nM

Query block: IC50 lookup needed for `CC(C)C[C@@H](C(=O)N1C[C@]2(C[C@H]1C#N)C(=O)Nc1ccccc12)N1CCc2c(F)cccc2C1=O` , thanks.
Result block: < 100 nM

Query block: I am curious: what IC50 value has been reported for `CC(C)(F)C[C@@H](C(=O)N1C[C@]2(C[C@H]1C#N)C(=O)Nc1ccccc12)N1Cc2cccc(Cl)c2C1=O` ?
Result block: 100 to 1000 nM

Query block: Fill in the blank: the reported IC50 of `CC(C)(F)C[C@@H](C(=O)N1C[C@]2(C[C@H]1C#N)C(=O)Nc1ccccc12)N1Cc2ccc(Cl)cc2C1=O` is ____.
Result block: < 100 nM

Query block: IC50 lookup needed for `CC(C)(C)C[C@@H](C(=O)N1C[C@]2(C[C@H]1C#N)C(=O)Nc1ccccc12)N1Cc2cc(Cl)ccc2C1=O` , thanks.
Result block: < 100 nM

Query block: Suppose we examine the compound `CC(C)(C)C[C@@H](C(=O)N1C[C@]2(C[C@H]1C#N)C(=O)Nc1ccccc12)N1Cc2c(cccc2C(F)(F)F)C1=O` ; what IC50 value has been reported?
Result block: < 100 nM

Query block: Data request, read-out IC50, for `CC(C)(C)C[C@@H](C(=O)N1C[C@]2(C[C@H]1C#N)C(=O)Nc1ccccc12)N1Cc2cccnc2C1=O`
Result block: 100 to 1000 nM

Query block: Reported IC50, compound `C=C1c2ccccc2C(=O)N1[C@@H](CC(C)C)C(=O)N1C[C@]2(C[C@H]1C#N)C(=O)Nc1ccccc12` : ____
Result block: < 100 nM

Query block: Endpoint output: IC50 of `CC(C)(C)C[C@@H](C(=O)N1C[C@]2(C[C@H]1C#N)C(=O)Nc1ccccc12)N1CCc2cc(F)ccc2C1=O` . Value?
Result block: < 100 nM

Query block: Find the recorded IC50 belonging to `COc1ccc2c(c1)CN([C@@H](CC(C)(C)C)C(=O)N1C[C@]3(C[C@H]1C#N)C(=O)Nc1ccccc13)C2=O` and report it.
Result block: < 100 nM
